- experiment description: Rodent pharmacokinetic study
- Format: in vivo, rat
- conditions used: rat, plasma; 3 mg/kg oral (gavage), male Wistar rats
attribute measured: Cmax (ng/mL)

Worked cases, Cmax given:
>  <cpd smiles>
O=C(N[C@H]1CCCC[C@@H]1O)C1=CN(Cc2ccccn2)c2ccccc2S1

>  <Cmax / ng/mL>
195

$$$$
>  <cpd smiles>
O=C(N[C@H]1CCCC[C@@H]1O)C1=CN(Cc2cccc(F)c2F)c2ncccc2O1

>  <Cmax / ng/mL>
159

$$$$
>  <cpd smiles>
O=C(N[C@H]1CCCC[C@@H]1O)C1=CN(Cc2ccccc2)c2ccccc2O1

>  <Cmax / ng/mL>
245

$$$$
>  <cpd smiles>
COc1cccc(CN2C=C(C(=O)N[C@H]3CCCC[C@@H]3O)Oc3ccccc32)c1

>  <Cmax / ng/mL>
320

$$$$
>  <cpd smiles>
COc1ccc(CN2C=C(C(=O)N[C@H]3CCCC[C@@H]3O)Oc3ccccc32)cc1

>  <Cmax / ng/mL>
430

$$$$

P. O=C(N[C@H]1CCCC[C@@H]1O)C1=CN(Cc2ccc(Cl)nc2)c2ccccc2O1
Q. O=C(N[C@H]1CCCC[C@@H]1O)C1=CN(Cc2ccccc2F)c2ccccc2O1
R. O=C(N[C@H]1CCCC[C@@H]1O)C1=CN(Cc2cccc(C(F)(F)F)c2)c2ccccc2O1
S. O=C(N[C@H]1CCCC[C@@H]1O)C1=CN(Cc2cccc(F)c2)c2cccc(F)c2O1
With regard to Cmax, arrange the entries in ascending order, please. Quick reminder: the answer is the labels in the order asked.
R, S, Q, P
(R: 91 ng/mL, S: 132 ng/mL, Q: 419 ng/mL, P: 992 ng/mL)

A. O=C(N[C@H]1CCCC[C@@H]1O)C1=CN(Cc2ccncc2)c2ccccc2O1
B. O=C(N[C@H]1CCCC[C@@H]1O)C1=CN(Cc2ccc(F)c(F)c2)c2ccccc2O1
Just tell me: smaller Cmax value, A or B ? Bench note: the answer is the label of the chosen record.
B
(B: 252 ng/mL, A: 428 ng/mL)

I. O=C(N[C@H]1CCCC[C@@H]1O)C1=CN(Cc2cccc(F)c2F)c2ccccc2O1
II. O=C(N[C@H]1CCCC[C@@H]1O)C1=CN(Cc2cccc(F)c2)c2ccccc2O1
Cmax comparison. Which is larger, I or II ? Bench note: the answer is the label of the chosen record.
I
(I: 477 ng/mL, II: 313 ng/mL)

---

- system: recombinant human Muscarinic M1 receptor (Homo sapiens (Human), UniProt P11229)
- Sequence (P11229 whole entry): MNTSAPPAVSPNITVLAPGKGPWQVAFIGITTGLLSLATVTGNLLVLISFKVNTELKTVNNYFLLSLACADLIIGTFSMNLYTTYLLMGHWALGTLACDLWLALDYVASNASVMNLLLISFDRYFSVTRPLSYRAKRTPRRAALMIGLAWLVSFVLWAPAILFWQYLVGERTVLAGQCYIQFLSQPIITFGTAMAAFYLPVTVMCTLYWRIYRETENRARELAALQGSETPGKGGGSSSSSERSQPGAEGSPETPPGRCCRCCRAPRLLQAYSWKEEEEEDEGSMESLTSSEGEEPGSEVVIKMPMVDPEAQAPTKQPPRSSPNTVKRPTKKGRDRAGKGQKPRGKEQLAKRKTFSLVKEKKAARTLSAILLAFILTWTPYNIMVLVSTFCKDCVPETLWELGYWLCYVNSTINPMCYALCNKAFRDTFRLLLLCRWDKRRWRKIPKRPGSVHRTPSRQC
- experiment description: Allosteric potency EC50, CHO cells with pCRE-Luc reporter, in presence of EC20 of acetylcholine
- conditions used: 4 hours
attribute measured: EC50 (nM)

Worked cases, EC50 given:
>  <compound>
O=C(N[C@@H]1CCC[C@H]1O)C1=CN(Cc2cccc(F)c2F)c2ccccc2O1 [Example 39]

>  <measurement unit>
nM

>  <EC50>
1550

$$$$
>  <compound>
O=C(N[C@H]1CCCC[C@@H]1O)C1=CN(Cc2ccccc2Cl)c2ccccc2O1 [Example 41]

>  <measurement unit>
nM

>  <EC50>
168

$$$$
>  <compound>
COc1ccc(CN2C=C(C(=O)N[C@H]3CCCC[C@@H]3O)Oc3ccccc32)cn1 [Example 15]

>  <measurement unit>
nM

>  <EC50>
591

$$$$

P. O=C(N[C@H]1CCCC[C@@H]1O)C1=CN(Cc2ccccc2F)c2c(F)cccc2O1 [Example 55]
Q. O=C(N[C@H]1CCCC[C@@H]1O)C1=CN(Cc2cccc(F)c2)c2ccccc2[S+]1[O-] (some centres unmarked) [Example 95]
Just tell me: smaller EC50 value, P or Q ? Bench note: the answer is the label of the chosen record.
P
(P: 828 nM, Q: 1520 nM)
